Tested on: VDR homodimer (NR concentration 270 nM)
methodSummary: PBM binding z-score (relative to random genomic background probes); higher = stronger binding; sequences stand for … in GC…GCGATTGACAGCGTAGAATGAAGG
Decision: PBM binding z-score compared against 1; not below it gives T, below it gives F.

- itemSequence: "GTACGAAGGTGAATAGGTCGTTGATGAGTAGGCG"
  assignedCategory: "F"
- itemSequence: "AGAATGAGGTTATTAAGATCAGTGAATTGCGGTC"
  assignedCategory: "T"
- itemSequence: "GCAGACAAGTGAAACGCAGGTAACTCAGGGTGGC"
  assignedCategory: "F"
- itemSequence: "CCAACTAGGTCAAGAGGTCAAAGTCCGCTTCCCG"
  assignedCategory: "T"
- itemSequence: "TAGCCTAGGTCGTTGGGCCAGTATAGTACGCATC"
  assignedCategory: "F"
- itemSequence: "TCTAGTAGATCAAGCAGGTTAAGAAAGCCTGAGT"
  assignedCategory: "F"
- itemSequence: "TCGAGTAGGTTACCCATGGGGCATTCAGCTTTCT"
  assignedCategory: "F"
- itemSequence: "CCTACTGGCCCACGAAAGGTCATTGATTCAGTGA"
  assignedCategory: "T"
- itemSequence: "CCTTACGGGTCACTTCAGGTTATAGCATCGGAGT"
  assignedCategory: "T"
- itemSequence: "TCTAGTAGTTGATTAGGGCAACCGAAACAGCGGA"
  assignedCategory: "F"
- itemSequence: "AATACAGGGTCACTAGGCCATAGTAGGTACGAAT"
  assignedCategory: "T"
- itemSequence: "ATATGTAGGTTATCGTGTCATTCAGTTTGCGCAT"
  assignedCategory: "T"

###

Measured PBM binding z-score values are reported for all entries that follow.
System: VDR homodimer (NR concentration 270 nM)
methodSummary: PBM binding z-score (relative to random genomic background probes); higher = stronger binding; sequences stand for … in GC…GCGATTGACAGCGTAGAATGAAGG

- itemSequence: "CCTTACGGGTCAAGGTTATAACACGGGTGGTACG"
  PBM binding z-score: 1.41
- itemSequence: "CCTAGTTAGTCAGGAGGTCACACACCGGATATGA"
  PBM binding z-score: 3.01
- itemSequence: "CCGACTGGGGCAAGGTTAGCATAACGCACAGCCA"
  PBM binding z-score: -0.191
- itemSequence: "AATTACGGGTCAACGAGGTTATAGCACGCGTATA"
  PBM binding z-score: 4.13
- itemSequence: "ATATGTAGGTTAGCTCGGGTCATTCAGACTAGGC"
  PBM binding z-score: 2.6
- itemSequence: "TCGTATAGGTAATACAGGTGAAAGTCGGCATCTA"
  PBM binding z-score: 0.57
- itemSequence: "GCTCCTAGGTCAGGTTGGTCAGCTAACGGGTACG"
  PBM binding z-score: 0.591
- itemSequence: "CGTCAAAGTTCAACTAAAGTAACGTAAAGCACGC"
  PBM binding z-score: 3.56
- itemSequence: "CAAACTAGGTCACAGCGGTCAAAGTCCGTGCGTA"
  PBM binding z-score: 2.57
- itemSequence: "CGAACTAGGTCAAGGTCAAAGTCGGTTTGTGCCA"
  PBM binding z-score: 4.23
- itemSequence: "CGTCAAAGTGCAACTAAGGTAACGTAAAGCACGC"
  PBM binding z-score: 0.128
- itemSequence: "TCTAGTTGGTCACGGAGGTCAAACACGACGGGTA"
  PBM binding z-score: 3.62

###

System: RXRa homodimer (NR concentration 180 nM)
methodSummary: PBM binding z-score (relative to random genomic background probes); higher = stronger binding; sequences stand for … in GC…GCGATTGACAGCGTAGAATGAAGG
Decision: PBM binding z-score compared against 1; not below it gives T, below it gives F.

- itemSequence: "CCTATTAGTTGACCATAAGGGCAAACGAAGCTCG"
  assignedCategory: "F"
- itemSequence: "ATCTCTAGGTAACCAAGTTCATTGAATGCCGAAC"
  assignedCategory: "T"
- itemSequence: "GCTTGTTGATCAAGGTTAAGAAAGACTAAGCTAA"
  assignedCategory: "F"
- itemSequence: "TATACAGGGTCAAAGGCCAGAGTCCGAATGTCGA"
  assignedCategory: "T"
- itemSequence: "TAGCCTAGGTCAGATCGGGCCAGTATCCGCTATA"
  assignedCategory: "T"
- itemSequence: "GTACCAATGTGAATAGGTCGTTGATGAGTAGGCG"
  assignedCategory: "F"

###

Measured PBM binding z-score values are reported for all entries that follow.
Tested on: LXRb homodimer (NR concentration 270 nM)
methodSummary: PBM binding z-score (relative to random genomic background probes); higher = stronger binding; sequences stand for … in GC…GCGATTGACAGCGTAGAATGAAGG
measure: PBM binding z-score

- itemSequence: "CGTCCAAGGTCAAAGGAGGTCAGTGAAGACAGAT"
  result: 1.51
- itemSequence: "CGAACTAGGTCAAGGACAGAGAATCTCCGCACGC"
  result: -0.37
- itemSequence: "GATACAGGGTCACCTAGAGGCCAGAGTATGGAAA"
  result: -0.035
- itemSequence: "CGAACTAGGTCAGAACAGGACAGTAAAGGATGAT"
  result: -0.326
- itemSequence: "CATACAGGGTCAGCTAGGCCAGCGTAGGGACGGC"
  result: 0.387
- itemSequence: "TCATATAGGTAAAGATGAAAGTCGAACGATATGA"
  result: -0.264
- itemSequence: "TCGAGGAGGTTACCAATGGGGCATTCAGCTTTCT"
  result: -0.369
- itemSequence: "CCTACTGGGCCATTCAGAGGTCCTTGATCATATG"
  result: -0.529
- itemSequence: "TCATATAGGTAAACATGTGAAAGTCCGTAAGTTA"
  result: 0.208
- itemSequence: "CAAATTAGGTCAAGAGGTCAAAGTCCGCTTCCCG"
  result: 2.41
- itemSequence: "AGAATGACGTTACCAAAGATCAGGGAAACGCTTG"
  result: -0.144
- itemSequence: "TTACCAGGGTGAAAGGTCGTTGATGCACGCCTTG"
  result: -0.0752
- itemSequence: "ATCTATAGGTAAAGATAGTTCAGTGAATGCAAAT"
  result: 0.423
- itemSequence: "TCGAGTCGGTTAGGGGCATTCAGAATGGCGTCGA"
  result: -0.666
- itemSequence: "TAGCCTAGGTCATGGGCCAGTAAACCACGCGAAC"
  result: -0.182
- itemSequence: "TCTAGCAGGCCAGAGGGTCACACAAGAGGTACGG"
  result: -1.34
- itemSequence: "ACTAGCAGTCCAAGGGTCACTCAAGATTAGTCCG"
  result: -0.249
- itemSequence: "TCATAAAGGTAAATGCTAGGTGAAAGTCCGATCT"
  result: -0.29
- itemSequence: "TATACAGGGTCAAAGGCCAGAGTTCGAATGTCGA"
  result: 2.5
- itemSequence: "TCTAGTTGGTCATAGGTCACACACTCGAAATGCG"
  result: 1.25
- itemSequence: "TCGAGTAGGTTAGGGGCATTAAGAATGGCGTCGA"
  result: -0.27
- itemSequence: "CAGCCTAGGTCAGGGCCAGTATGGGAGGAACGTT"
  result: -1.05
- itemSequence: "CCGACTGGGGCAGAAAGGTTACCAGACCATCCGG"
  result: -1.23
- itemSequence: "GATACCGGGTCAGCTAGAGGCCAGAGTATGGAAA"
  result: -1.03
- itemSequence: "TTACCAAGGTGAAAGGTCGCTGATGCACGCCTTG"
  result: -0.623
- itemSequence: "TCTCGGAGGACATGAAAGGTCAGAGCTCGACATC"
  result: -0.221

###

System: RARa:RXR (NR concentration 270 nM, RXRa partner concentration 90 nM)
methodSummary: PBM binding z-score (relative to random genomic background probes); higher = stronger binding; sequences stand for … in GC…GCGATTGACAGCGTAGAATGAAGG
Measured PBM binding z-score values are reported for all entries that follow.

- itemSequence: "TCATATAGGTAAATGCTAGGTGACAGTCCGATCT"
  targetOfAssay: "RARa:RXR (NR concentration 270 nM, RXRa partner concentration 90 nM)"
  PBM binding z-score: 0.861
- itemSequence: "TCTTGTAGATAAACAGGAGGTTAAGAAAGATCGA"
  targetOfAssay: "RARa:RXR (NR concentration 270 nM, RXRa partner concentration 90 nM)"
  PBM binding z-score: 1.05
- itemSequence: "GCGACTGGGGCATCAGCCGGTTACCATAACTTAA"
  targetOfAssay: "RARa:RXR (NR concentration 270 nM, RXRa partner concentration 90 nM)"
  PBM binding z-score: -0.651
- itemSequence: "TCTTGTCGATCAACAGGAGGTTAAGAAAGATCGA"
  targetOfAssay: "RARa:RXR (NR concentration 270 nM, RXRa partner concentration 90 nM)"
  PBM binding z-score: 0.726
- itemSequence: "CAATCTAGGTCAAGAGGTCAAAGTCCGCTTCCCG"
  targetOfAssay: "RARa:RXR (NR concentration 270 nM, RXRa partner concentration 90 nM)"
  PBM binding z-score: 8.3
- itemSequence: "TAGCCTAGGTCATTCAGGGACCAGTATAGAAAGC"
  targetOfAssay: "RARa:RXR (NR concentration 270 nM, RXRa partner concentration 90 nM)"
  PBM binding z-score: 2.18
- itemSequence: "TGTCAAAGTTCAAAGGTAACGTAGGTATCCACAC"
  targetOfAssay: "RARa:RXR (NR concentration 270 nM, RXRa partner concentration 90 nM)"
  PBM binding z-score: 6.75
- itemSequence: "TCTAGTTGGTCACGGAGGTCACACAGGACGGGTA"
  targetOfAssay: "RARa:RXR (NR concentration 270 nM, RXRa partner concentration 90 nM)"
  PBM binding z-score: 4.72
- itemSequence: "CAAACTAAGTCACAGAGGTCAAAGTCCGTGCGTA"
  targetOfAssay: "RARa:RXR (NR concentration 270 nM, RXRa partner concentration 90 nM)"
  PBM binding z-score: 6.39
- itemSequence: "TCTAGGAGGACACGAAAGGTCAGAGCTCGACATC"
  targetOfAssay: "RARa:RXR (NR concentration 270 nM, RXRa partner concentration 90 nM)"
  PBM binding z-score: 4.32
- itemSequence: "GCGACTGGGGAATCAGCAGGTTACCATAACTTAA"
  targetOfAssay: "RARa:RXR (NR concentration 270 nM, RXRa partner concentration 90 nM)"
  PBM binding z-score: -0.13
- itemSequence: "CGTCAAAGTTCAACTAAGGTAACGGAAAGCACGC"
  targetOfAssay: "RARa:RXR (NR concentration 270 nM, RXRa partner concentration 90 nM)"
  PBM binding z-score: 3.89
- itemSequence: "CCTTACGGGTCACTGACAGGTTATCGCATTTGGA"
  targetOfAssay: "RARa:RXR (NR concentration 270 nM, RXRa partner concentration 90 nM)"
  PBM binding z-score: 4.93
- itemSequence: "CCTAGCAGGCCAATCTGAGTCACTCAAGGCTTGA"
  targetOfAssay: "RARa:RXR (NR concentration 270 nM, RXRa partner concentration 90 nM)"
  PBM binding z-score: -0.853
- itemSequence: "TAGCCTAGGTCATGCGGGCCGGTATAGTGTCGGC"
  targetOfAssay: "RARa:RXR (NR concentration 270 nM, RXRa partner concentration 90 nM)"
  PBM binding z-score: 2.14
- itemSequence: "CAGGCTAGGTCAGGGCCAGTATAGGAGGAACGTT"
  targetOfAssay: "RARa:RXR (NR concentration 270 nM, RXRa partner concentration 90 nM)"
  PBM binding z-score: 0.946
- itemSequence: "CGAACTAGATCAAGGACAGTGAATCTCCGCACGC"
  targetOfAssay: "RARa:RXR (NR concentration 270 nM, RXRa partner concentration 90 nM)"
  PBM binding z-score: -0.24
- itemSequence: "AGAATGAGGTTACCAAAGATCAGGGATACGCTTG"
  targetOfAssay: "RARa:RXR (NR concentration 270 nM, RXRa partner concentration 90 nM)"
  PBM binding z-score: 2.04
- itemSequence: "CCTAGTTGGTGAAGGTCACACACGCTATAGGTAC"
  targetOfAssay: "RARa:RXR (NR concentration 270 nM, RXRa partner concentration 90 nM)"
  PBM binding z-score: 3.61
- itemSequence: "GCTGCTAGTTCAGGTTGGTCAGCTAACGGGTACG"
  targetOfAssay: "RARa:RXR (NR concentration 270 nM, RXRa partner concentration 90 nM)"
  PBM binding z-score: -0.23
- itemSequence: "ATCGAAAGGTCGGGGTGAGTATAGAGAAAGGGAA"
  targetOfAssay: "RARa:RXR (NR concentration 270 nM, RXRa partner concentration 90 nM)"
  PBM binding z-score: 3.03
- itemSequence: "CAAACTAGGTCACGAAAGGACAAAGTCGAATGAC"
  targetOfAssay: "RARa:RXR (NR concentration 270 nM, RXRa partner concentration 90 nM)"
  PBM binding z-score: 3.22
- itemSequence: "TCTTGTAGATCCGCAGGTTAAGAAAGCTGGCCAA"
  targetOfAssay: "RARa:RXR (NR concentration 270 nM, RXRa partner concentration 90 nM)"
  PBM binding z-score: 0.597
- itemSequence: "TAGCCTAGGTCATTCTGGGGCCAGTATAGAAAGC"
  targetOfAssay: "RARa:RXR (NR concentration 270 nM, RXRa partner concentration 90 nM)"
  PBM binding z-score: 2.76
- itemSequence: "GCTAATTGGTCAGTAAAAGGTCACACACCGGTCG"
  targetOfAssay: "RARa:RXR (NR concentration 270 nM, RXRa partner concentration 90 nM)"
  PBM binding z-score: 5.26
- itemSequence: "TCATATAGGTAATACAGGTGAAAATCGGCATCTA"
  targetOfAssay: "RARa:RXR (NR concentration 270 nM, RXRa partner concentration 90 nM)"
  PBM binding z-score: 1.46
